Data credit: ChEMBL document CHEMBL1201861

Items are presented alongside their recorded IC50.
- Test system: A498;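 further: growth inhibition of human A498 cells, read out with a cell viability assay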
- EXPERIMENT_SUMMARY: cells
- Format: functional, cell-based
- TEST_CONDITIONS: Homo sapiens
- Description: SANGER: Inhibition of human A498 cell growth in a cell viability assay.
READOUT_NAME: IC50

- C[C@]1(c2nc3c(C(N)=O)cccc3[nH]2)CCCN1: > 5000 nM
- CCCS(=O)(=O)Nc1ccc(F)c(C(=O)c2c[nH]c3ncc(Cl)cc23)c1F: > 10000 nM
- Cc1n[nH]c2ccc(-c3cncc(OC[C@@H](N)Cc4c[nH]c5ccccc45)c3)cc12: > 1020 nM
- CCNc1cc(N[C@H]2CC[C@@H](O)CC2)nc(Nc2ccc3c(ccn3Cc3ccccc3)c2)n1: > 5120 nM
- O=c1[nH]c2ccccc2n1C1CCN(Cc2ccc(-c3nc4cc5[nH]cnc5cc4nc3-c3ccccc3)cc2)CC1: 1080 nM
- CCn1c(-c2nonc2N)nc2cnc(Oc3cccc(NC(=O)c4ccc(OCCN5CCOCC5)cc4)c3)cc21 [GSK-269962A]: > 2500 nM
- Cn1cc(/C=C2\C(=O)Nc3cccnc32)c2ccccc21: > 2000 nM
